Please provide measured ECmax (-fold induction over basal) for the entries that follow.
target.desc: T1, GPR39 (G protein-coupled receptor 39) (Homo sapiens (Human), UniProt O43194 1-453)
T1 sequence: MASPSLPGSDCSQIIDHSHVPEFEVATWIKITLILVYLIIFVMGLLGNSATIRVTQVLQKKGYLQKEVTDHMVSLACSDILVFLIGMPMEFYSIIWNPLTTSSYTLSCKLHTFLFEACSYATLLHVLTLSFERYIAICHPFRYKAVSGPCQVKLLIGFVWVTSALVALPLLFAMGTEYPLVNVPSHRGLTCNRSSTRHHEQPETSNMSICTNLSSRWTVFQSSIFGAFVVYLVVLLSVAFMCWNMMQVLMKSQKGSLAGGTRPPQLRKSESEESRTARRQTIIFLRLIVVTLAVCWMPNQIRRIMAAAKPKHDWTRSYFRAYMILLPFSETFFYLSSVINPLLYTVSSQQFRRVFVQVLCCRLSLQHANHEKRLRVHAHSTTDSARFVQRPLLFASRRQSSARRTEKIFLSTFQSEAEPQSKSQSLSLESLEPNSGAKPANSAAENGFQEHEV
experimental.protocol: cell-based or functional assay
Numbered stars: 1 amine (or outer) side, 2 acyl side, 3 side chain; on linkers, the order of the positions; unused ones are H or OH. Square brackets hold non-standard residues; d marks the D form. Ends that are not written are not given here. * marks the point of attachment. DAMP‑2 = His whose imidazole is a 1,3-bis(2-cyclohexylethyl)-2,3-dihydro-1H-imidazol-4-yl group, O=C([C@H](CC1=CN(CCC2CCCCC2)CN1CCC1CCCCC1)N[*:1])[*:2]; dPhe(4-Cl) = N[C@H](Cc1ccc(Cl)cc1)C(=O)O; dPhe(4-Me) = Cc1ccc(C[C@@H](N)C(=O)O)cc1; Trt = c1ccc(C(c2ccccc2)(c2ccccc2)*)cc1; Dmt = Cc1cc(O)cc(C)c1C[C@H](N)C(=O)O; Benzhydryl = c1ccc(C(c2ccccc2)*)cc1; Myristoyl = CCCCCCCCCCCCCC(=O)*; Tos = Cc1ccc(S(=O)(=O)*)cc1; Octanoyl = CCCCCCCC(=O)*; SO3H = O=S(=O)(O)*

// solved cases for ECmax (-fold induction over basal) follow
Look up ECmax (-fold induction over basal): H(Benzhydryl)K(Octanoyl)[dPhe(4-Me)][Tyr(3-amino)] [HKFY-70]
10.1 -fold induction over basal

Look up ECmax (-fold induction over basal): H(Tos)K(Octanoyl)[dPhe(4-Me)]Y [HKFY-75]
15.9 -fold induction over basal

Look up ECmax (-fold induction over basal): H(Trt)K(Octanoyl)YY [HKFY-48]
14.4 -fold induction over basal

List ECmax (-fold induction over basal) for every entry below, keeping the order given.
1. H(Trt)K(Myristoyl)FY [HKFY-26]
2. H(Trt)[dK](Octanoyl)[dPhe(4-Cl)]Y [HKFY-16]
3. H(Benzhydryl)K(Octanoyl)[dPhe(4-Me)][Dmt] [HKFY-36]
4. H(DAMP‑2)K(Octanoyl)FY [HKFY-8]
5. H(4‑methoxybenzhydryl)K(Octanoyl)[dPhe(4-Me)]Y [HKFY-64]
6. [dH](Trt)K(Octanoyl)[dPhe(4-Cl)][dY] [HKFY-14]
7. H(Benzhydryl)K(Octanoyl)[dPhe(4-Me)]Y(SO3H) [HKFY-35]
8. H(Trt)K(Octanoyl)FYSHQQARF (not fully specified; printed as His(trt)-Lys(caprylic)-Phe-Tyr-Ser-His-Gln-Gln-Ala-Arg-Phe) [HKFY-40]

19.8 -fold induction over basal
27.9 -fold induction over basal
9.9 -fold induction over basal
17.3 -fold induction over basal
16 -fold induction over basal
20.9 -fold induction over basal
18.9 -fold induction over basal
13.4 -fold induction over basal

Look up ECmax (-fold induction over basal): H(Trt)K(Octanoyl)[dPhe(4-Cl)][dY] [HKFY-15]
24.7 -fold induction over basal
